- assaySystem: UniProtKB P15085
- Sequence (P15085 whole entry): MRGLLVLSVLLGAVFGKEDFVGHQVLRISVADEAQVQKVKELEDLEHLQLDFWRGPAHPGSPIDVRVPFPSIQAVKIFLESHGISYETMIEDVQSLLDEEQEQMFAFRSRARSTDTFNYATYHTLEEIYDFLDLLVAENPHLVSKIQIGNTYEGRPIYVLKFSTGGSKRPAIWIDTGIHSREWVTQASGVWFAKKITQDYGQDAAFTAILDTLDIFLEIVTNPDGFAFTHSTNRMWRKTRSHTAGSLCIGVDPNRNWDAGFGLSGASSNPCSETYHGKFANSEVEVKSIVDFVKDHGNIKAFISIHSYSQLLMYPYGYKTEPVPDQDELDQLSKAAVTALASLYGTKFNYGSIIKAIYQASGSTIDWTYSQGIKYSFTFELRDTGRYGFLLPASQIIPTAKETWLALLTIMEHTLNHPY
- measurementNotes: Inhibition of human CPA1 using AAFP as substrate assessed as dissociation rate constant measured at pre-steady state by spectrophotometry
Listed here: items and their measured K.
The reply should be a number in ×10⁻⁵ /s, with the unit left off.

Consider the following illustrative entries.
C[C@H](NC(=O)[C@H](Cc1ccc(O)cc1)NC(=O)COCCOCCNC(=O)CCOCCOCCOCCNC(=O)CCc1ccc(C(=C\C=C2\N(CCCCS(=O)(=O)O)c3ccc4c(S(=O)(=O)[O-])cc(S(=O)(=O)O)cc4c3C2(C)C)/C=C/C2=[N+](CCCCS(=O)(=O)O)c3ccc4c(S(=O)(=O)O)cc(S(=O)(=O)O)cc4c3C2(C)C)cc1)P(=O)(O)C[C@@H](CCc1ccccc1)C(=O)O ... 4.8
CC(=O)NCCOCCOCC(=O)N[C@@H](Cc1ccc(O)cc1)C(=O)N[C@@H](C)P(=O)(O)C[C@@H](CCc1ccccc1)C(=O)O ... 7
CC(=O)N[C@@H](Cc1ccc(O)cc1)C(=O)N[C@@H](C)P(=O)(O)C[C@@H](CCc1ccccc1)C(=O)O ... 7.6

Query compound follows.
Query string: Consider the compound `CC(=O)N[C@@H](CC(C)C)C(=O)N[C@@H](C)P(=O)(O)C[C@@H](CCc1ccccc1)C(=O)O` and give its recorded K.
Result string: 6

====

Listed here: items and their measured pKi.
- assaySystem: Carboxypeptidase A2 (Homo sapiens, UniProt P48052)
- Sequence (P48052 whole entry): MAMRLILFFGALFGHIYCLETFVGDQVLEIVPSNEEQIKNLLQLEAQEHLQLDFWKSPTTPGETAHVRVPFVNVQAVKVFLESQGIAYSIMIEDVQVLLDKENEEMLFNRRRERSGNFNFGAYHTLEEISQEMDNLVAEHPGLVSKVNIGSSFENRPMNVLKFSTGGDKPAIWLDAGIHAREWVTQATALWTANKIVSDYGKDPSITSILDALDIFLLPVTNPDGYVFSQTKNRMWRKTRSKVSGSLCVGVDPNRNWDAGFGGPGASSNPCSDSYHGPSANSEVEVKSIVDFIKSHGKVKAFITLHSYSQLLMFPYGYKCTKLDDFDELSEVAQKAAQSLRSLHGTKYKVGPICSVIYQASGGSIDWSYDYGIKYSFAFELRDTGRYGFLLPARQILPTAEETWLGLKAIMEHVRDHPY
The quantity pKi is defined as the negative base-10 logarithm of the molar concentration.

CC(=O)N[C@@H](CC(C)C)C(=O)N[C@@H](C)P(=O)(O)C[C@@H](CCc1ccccc1)C(=O)O ... 9.15
CC(=O)N[C@@H](Cc1ccc(O)cc1)C(=O)N[C@@H](C)P(=O)(O)C[C@@H](CCc1ccccc1)C(=O)O ... 8.77
CC(=O)N1CCC[C@H]1C(=O)N[C@@H](C)P(=O)(O)C[C@@H](CCc1ccccc1)C(=O)O ... 8.49

Query molecule follows.
Query string: Consider the molecule `CC(=O)N[C@@H](CO)C(=O)N[C@@H](C)P(=O)(O)C[C@@H](CCc1ccccc1)C(=O)O` and give its recorded pKi.
Result string: 7.86

====

- assaySystem: Carboxypeptidase A2 (Homo sapiens)
Listed here: items and their measured Ki.
The reply should be a number in nM, with the unit left off.

CC(=O)NCCOCCOCC(=O)N[C@@H](Cc1ccc(O)cc1)C(=O)N[C@@H](C)P(=O)(O)C[C@@H](CCc1ccccc1)C(=O)O ... 5.7
C[C@H](NC(=O)[C@H](Cc1ccc(O)cc1)NC(=O)COCCOCCNC(=O)CCOCCOCCOCCNC(=O)CCc1ccc(C(=C\C=C2\N(CCCCS(=O)(=O)O)c3ccc4c(S(=O)(=O)[O-])cc(S(=O)(=O)O)cc4c3C2(C)C)/C=C/C2=[N+](CCCCS(=O)(=O)O)c3ccc4c(S(=O)(=O)O)cc(S(=O)(=O)O)cc4c3C2(C)C)cc1)P(=O)(O)C[C@@H](CCc1ccccc1)C(=O)O ... 5.3

Query string: Provide Ki, tested on Carboxypeptidase A2 (Homo sapiens), for `CC(=O)N[C@@H](CC(C)C)C(=O)N[C@@H](Cc1ccccc1)P(=O)(O)C[C@@H](CCc1ccccc1)C(=O)O` .
Result string: 0.2
